- ASSAY PROCEDURE: soluble on expression in E. coli; label from the status in PepcDB or PDB records
READOUT: soluble on expression in E. coli

residue_string=MAHHHHHHMSDLDKIRSKLEALKSKTEVKTDERIEIAKKNDPFNDLKVHILNVLDETRKCIREKESLQNVHGNNIEVIKRGNIIYNNMKNLDTYFLKLEEILKKQEKKKYAYSREELFDKNETFELLKRQIYECKKLSNYEHIKDTCVMDFSDFKNKQQVESKS result=soluble
residue_string=MAIIASNNSWDLYQLAVVILNYRTPQLVVDCLASLVSQIDPQTQQVIVVDNASGDDSVEEIEKAIANNNWQDWVRLLPSDVNGGFSAGNNLGIQAIRAENYLLLNSDTIVRPGAIQTLLVALEQYPEAGLFSPRLEWPDGTPQISCFRDHSPLSEMIDGARTSVITKLLQPFDVPIPVTEQSFEPQWTSFACVLIRRSVVEQIGLMDDGYFMYYDDIDYCRRARQAAWKIRYIPQASVVHLRGGSGSVKSDVASRKRPRPYLYASRSRYFAKFYGPLGLALANLGWLGGWGIAALREILGQKEPHTCDRQWQDIWFQWRQPLKPYRPELEHHHHHH result=soluble
residue_string=MAHHHHHHMTTLEKRIEEASGLIYRARAEETPDGNPLVAARNYIAAMEIITNICKDVSPESDNDKDRFFLFQVRQRMEVYQKRVQLLLSVAAEMGLDDIPEHVGNTVLDSPPHAGDRTGAADFENPAVPSTAPTSVPPPACADGFGENVPPLEYFFSQQPQAPTRPHPEETESVEALLGQFSFDEVKKE result=soluble

* * *

- ASSAY PROCEDURE: soluble on expression in E. coli; label from the status in PepcDB or PDB records
READOUT: soluble on expression in E. coli

residue_string=MGSDKIHHHHHHMKKKLALVVVHEIYGVNDHMHHVTDHFTSSHIDVFCPNLLQSQPAFHYSDEEKAYHFFMNHIGFEDGKKQIETFITHLSSRYTHIGLIGFSVGATISWLCSNNPKIDFIIGCYGSRIRDYIHMKPTCATLLIFPEKEASFSVPSFIQSLQQQKNPLLEIYQLHGEHGFLNPYTEKYNGHSTNQAYNLIDSFLVKNTLIKEM result="not soluble"
residue_string=MGSDKIHHHHHHKPGEVWPDDKGVHINAHGGGILRVGDTYYWFGEHKTEGSAGNLAQVGVHCYSSKDLYNWKDEGIALSVVPDDTTSHIVKGCVLERPKVIYNKKNDQYVMWFHLEPRGAGYSGALSGVAVSKNVAGPYSFVNAFRPNAGFWPVNVQELHKQPCTFSADLRFSGGELPAHPDSLNLLGRDQISGQMARDMNLFVDDDGIAYHIYSSEENSTLHISQLTDDYTSYSGKYARFFPGRFMEAPALFKQKGKYYLIMSGCTGWAPNAGRSAVASSIWGPWKELENPFRGENSEVSFYSQSTYVLPVPGHADRFIYMGDRWTPENAIDGRYIWLPIRFEGEQPVIEWRSEWSY result="not soluble"
residue_string=MELTKIRVKTIGYYHRDSEMKATPGRLPKNLNLACLTPMQNKEKFPNMNIEVLDSGKGELMMESLLDYISQTSCLQDEQPGFVTNKQLLVALTRTGSLAIHLFRWNGTTYLLKFNEDESVNQNFGAAFEHHCTKTDDPINENEPVRKAVMIAEIPRGKGVHSVLYSGQIDAVDNEVNRMHYELKVLSGGLTEHFWKTKSCMFYWQAVFGKADVLIIGSRTGKCPNDPKTTWPKEWPPFSVYQVETLEQNQIPESAAEECLKKVLMDPAPEWKPLEGEESVCYFLDLVEEYVKNNGDCYVFTRSDENPDWIVKEDEESVAEFRDVVRHYLAS result="not soluble"

* * *

- ASSAY PROCEDURE: soluble on expression in E. coli; label from the status in PepcDB or PDB records
READOUT: soluble on expression in E. coli

residue_string=FLRDAPKHLNPDGEIRLIISDLAEHLHLRPSDFLDKAFAQAGLRVADMMKTKPKHKKAANPSDPLAFARTRETTFLYRLKKA result="not soluble"
residue_string=MGSDKIHHHHHHMGIGIIIASHGKFAEGIHQSGSMIFGEQEKVQVVTFMPNEGPDDLYGHFNNAIQQFDADDEILVLADLWSGSPFNQASRVAGENPDRKMAIITGLNLPMLIQAYTERLMDAGAGVEQVAANIIKESKDGIKALPEDLNPVEETAATEKVVNALQGAIPAGTVIGDGKLKINLARVDTRLLHGQVATAWTPASKADRIIVASDEVAQDDLRKQLIKQAAPGGVKANVVPISKLIEASKDPRFGNTHALILFQTPQDALRAVEGGVEINELNVGSMAHSTGKTMVNNVLSMDKEDVATFEKLRDLGVTFDVRKVPNDSKKNLFELIQKTNIK result="not soluble"

* * *

- ASSAY PROCEDURE: soluble on expression in E. coli; label from the status in PepcDB or PDB records
READOUT: soluble on expression in E. coli

residue_string=MKATSEELAIFVAVVESGSFSRAAEQLGQANSAVSRAVKKLEMKLGVSLLNRTTRQLSLTEEGERYFRRVQQILQEMAAAETEIMESRNTPRGLLRIDAATPVMLHFLMPLIKPFRERYPEITLSLVSSETFINLIERKVDVAIRAGTLTDSSLRARPLFTSYRKIIASPDYIARFGKPETVEELKRHLCLGFSEPVSLNTWPIACSDGQLHEIKCGISSNSGETLKQLCLNGNGIACLSDYMIDKEIARGELVELLADKRLPVEMPFSAVYYSDRAVSTRIRAFIDFLSEYIRTAPAGAVKEG readout="soluble on expression in E. coli" result="not soluble"
residue_string=MGSDKIHHHHHHMQLQELHMLVVLAEELNMRKAAERLFVSQPALSQRLQTIEKAWGTKIFLRSQKGLTVTPAGEKIIQFANDVTLEQERIRENIDELEGEIHGTLKLAVASIIGQHWLPKVLKTYVEKYPNAKISLITGWSSEMLKSLYEDQVHIGIIRGNPEWKGRKDYLMTDHLYLVDTEISCIEDIAHTERPFIQFKSDSTYFQEIQHWWHQKFKTSPKQTILVDQIETCKQMALHGIGYAILPSVTLQNEDKVNKMPLLDMKGHPIGRDTWLLGYEPAFELKQVQAFVQVIKDMLDQENPF readout="soluble on expression in E. coli" result="not soluble"
residue_string=MIRYWKLLFSLAVASVLLVGCGTKEHETTQAAKEEQTADDQKPSSDAPSSKNPSPSKEAKEQTSTKKNEEEQRAAGGGQPAASQPTISLSYQDGNQTVTKTATLQTSNNQHFSLYVLEGWTLDAEEPGADVLLHGDAFARIRLLSEGETNYEQLAQEHAQAVDANAARQQTNGLPKPFADAVWYTAQADGVTVHVIASAQPTPMLLTVHAPSNEDVLGAVLAMAATLQKQ readout="soluble on expression in E. coli" result="not soluble"
residue_string=MAHHHHHHMDKAKTLEVLRGMKFMQRKEEAKRRAAFEVAQRDEIERQLLHPGTGSSGASGGVSDGGSSALRDRGGGGPVRATVLYDDSFPTHAYSLSRRSFTETLGGGGAIPVAAGLGDTDAHLEGSAVESRVSLKDVGEAQASADAALDDSDVASDEEVADLWGGEDAEGELNDPTAASDRRNQGVKRTRDRRGDRNQHACSDGRFIVKPSLRAPKLPRRLQETVAEQKRQRAEEEGDMNM readout="soluble on expression in E. coli" result=soluble
residue_string=DIESGLYALIGLFATSKTIDLVQVGLNQSKTVFIISENQEAIRQAILFKIDRGITRLSAKGGYTEDDKQILLCVIAQSEFSRLKEVIKEIDPEAFVVVMSASEVMGEGFTS readout="soluble on expression in E. coli" result="not soluble"
residue_string=MGSDKIHHHHHHMNKLEIENLSKIYGKKVANDKITVTLENGVYGLLGPNGAGKSTLMKQITTLIKPDEGQILYNGEDIFKMDADYRNILGYLPQEFGVYKNFTAKEFLQYIGALKGLRGKYLNSKIGELLDLVGLYDVRNKSIGKFSGGMKRRVGIAQVLLNDPKIIVLDEPTAGLDPQERARFRNLIAKMSRDKIIILSTHIISDIESVAKETIMIKDGKLLMKGTHKDILSHMENKVYNVQVKNECEVDDIQSKYKVVSIQSDINSIVLRIVSEDIPSEDNIQPVQAKFEDVYMFYFDLEDAREV readout="soluble on expression in E. coli" result="not soluble"

What measured soluble on expression in E. coli goes with MYIQILGSAAGGGFPQWNCNCVNCAGFRDGSLRAQARTQSSIALSDDGVNWVLCNASPDIRAQLQGFAPMQPGRALRDTGISAIVLMDSQIDHTTGLLSLREGCPHQVWCTDMVHEDLSTGFPLFEMLKHWNGGLNWNRIELQGSFVIPACPNLRFTPFPLRSAAPPYSPHRFDPHPGDNIGLLVEDTRTGGKLFYAPGLGKVDEALAEKMRDADCLLVDGTMWDDDEMQRRGVGTRTGREMGHLAQNGPGGMLDVLEGFPEQRKVLIHINNTNPILDEDSPERAELVRRNVEVAFDGMSIELLEHHHHHH ? soluble

Every entry's value here was drawn from the DeepSol protein solubility set.
